The values you see were collected from paper PMC3781598.

Reported half-life at 1 μM values follow for various compounds
protocol.text: Metabolic stability in liver microsomes
Assay type: in vitro ADME, male B6C2F1 mouse
stated.conditions: male, B6C2F1, mouse, liver microsomes, pH 7.4
observable: half-life at 1 μM (s)

molecule	result.value
Fc1cccc(Cl)c1CN1CCOCC1	48
Clc1ccccc1CN1CCOCC1	60

* * *

assayed.system: human CYP2A6 (Homo sapiens, UniProt P11509)
protocol.text: Spectral ligand binding assay
stated.conditions: spectral titration; ≥ = minimal Kd value

compound	Kd 2A6
Clc1ccccc1CN1CCOCC1 [Compound 3, 4-(2-chlorobenzyl)morpholine]	No ^** Spectral Shift
Brc1ccccc1CN1CCOCC1 [Compound 4, 4-(2-bromobenzyl)morpholine]	No ^** Spectral Shift
Cc1ccccc1CN1CCOCC1 [Compound 5, 4-(2-methylbenzyl)morpholine]	No ^** Spectral Shift

* * *

assayed.system: CYP2C8 (Homo sapiens)
Sequence (P10632 whole entry): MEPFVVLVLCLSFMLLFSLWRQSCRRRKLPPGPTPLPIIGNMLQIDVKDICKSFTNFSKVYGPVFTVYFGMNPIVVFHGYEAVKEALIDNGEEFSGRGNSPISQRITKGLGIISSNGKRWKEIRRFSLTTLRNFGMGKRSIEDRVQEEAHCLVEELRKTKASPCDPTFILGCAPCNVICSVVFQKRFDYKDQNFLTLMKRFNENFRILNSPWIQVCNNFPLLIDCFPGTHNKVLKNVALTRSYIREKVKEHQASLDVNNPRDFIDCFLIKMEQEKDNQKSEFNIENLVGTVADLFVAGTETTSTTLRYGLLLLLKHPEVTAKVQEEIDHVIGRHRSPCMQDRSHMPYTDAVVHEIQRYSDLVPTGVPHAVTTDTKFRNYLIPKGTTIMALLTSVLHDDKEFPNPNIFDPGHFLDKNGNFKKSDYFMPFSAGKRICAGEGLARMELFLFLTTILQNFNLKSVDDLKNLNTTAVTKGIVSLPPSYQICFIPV
protocol.text: Metabolic stability phenotyping with recombinantly expressed CYPs
Assay type: in vitro ADME
stated.conditions: recombinant CYP2C8, pH 7.4
Reported half-life at 1 μM values follow for various compounds
observable: half-life at 1 μM (min)

molecule	assayed.system	observable	unit.of.measurement	result.value
Fc1cccc(Cl)c1CN1CCOCC1	CYP2C8 (Homo sapiens)	half-life at 1 μM	min	51
Clc1ccccc1CN1CCOCC1	CYP2C8 (Homo sapiens)	half-life at 1 μM	min	62

* * *

assayed.system: human CYP2A13 (Homo sapiens, UniProt Q16696)
protocol.text: Spectral ligand binding assay
stated.conditions: Kd CYP2A13, follow-up titration of HTS hit, Figure 1D

molecule	Kd
Fc1cccc(Cl)c1CN1CCOCC1 [Compound 7, 4-(2-chloro-6-fluorobenzyl)morpholine]	~2000 nM

* * *

protocol.text: Metabolic stability in wild type mouse liver microsomes
Assay type: in vitro ADME
stated.conditions: pH 7.4
observable: half-life at 1 μM (h)

molecule	result.value
Fc1cccc(Cl)c1CN1CCOCC1	1.22

* * *

Reported pKd values follow for various compounds
assayed.system: human CYP2A13 (Homo sapiens, UniProt Q16696)
Sequence (Q16696 25-494): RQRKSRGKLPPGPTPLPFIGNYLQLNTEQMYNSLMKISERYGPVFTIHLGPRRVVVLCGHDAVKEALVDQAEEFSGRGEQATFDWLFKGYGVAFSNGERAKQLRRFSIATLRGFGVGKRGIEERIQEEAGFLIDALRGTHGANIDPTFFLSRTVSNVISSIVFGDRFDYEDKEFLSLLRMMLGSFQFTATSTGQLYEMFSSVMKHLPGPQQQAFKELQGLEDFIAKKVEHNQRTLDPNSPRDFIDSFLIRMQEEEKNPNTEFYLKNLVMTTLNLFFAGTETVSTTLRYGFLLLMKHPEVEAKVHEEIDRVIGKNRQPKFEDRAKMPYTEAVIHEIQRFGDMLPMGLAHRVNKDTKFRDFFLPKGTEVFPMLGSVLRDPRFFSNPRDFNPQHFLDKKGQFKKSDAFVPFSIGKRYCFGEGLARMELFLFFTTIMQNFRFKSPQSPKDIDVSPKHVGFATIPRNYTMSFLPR
protocol.text: Spectral ligand binding assay
stated.conditions: Kd 2A13, spectral titration; ≥ = minimal Kd value
pKd: −log10 of the molar value.

compound	prefix.operator	pKd
CC(c1ccccc1Cl)N1CCOCC1 (stereo not shown)	=	5.12
Clc1cccc(CN2CCOCC2)c1Cl	=	4.51
Clc1cccc(Cl)c1Cn1ccnc1	>	7.00
Clc1ccccc1CN1CCSCC1	=	5.08
Clc1ccccc1CN1CCOCC1	=	5.23
Cc1ccccc1CN1CCOCC1	=	4.73
Clc1ccsc1CN1CCOCC1	=	4.97
CN1CCN(Cc2ccccc2Cl)CC1	=	3.51
Fc1cccc(Cl)c1CN1CCOCC1	=	5.28
Clc1cccc(CN2CCOCC2)c1	=	4.16
CCc1ccccc1CN1CCOCC1	=	5.35
c1csc(CN2CCOCC2)c1	=	4.51
CN1CCN(Cc2c(Cl)cccc2Cl)CC1	≤	3.44
Brc1ccccc1CN1CCOCC1	=	5.20
Cc1cccc(Cl)c1CN1CCOCC1	=	5.96
Clc1ccccc1Cn1ccnc1	>	7.00
Clc1ccc(CN2CCOCC2)c(Cl)c1	=	4.47
CC1CN(Cc2cccc(Cl)c2Cl)CC(C)O1 (stereo not shown)	=	4.43
Clc1cccc(Cl)c1CN1CCOCC1	=	5.89
